Listed below are compounds with pIC50 for Squalene synthase (Rattus norvegicus, UniProt Q02769), each taken from published literature.
# Test Target: Squalene synthase (Rattus norvegicus, UniProt Q02769)
# Sequence (Q02769 whole entry): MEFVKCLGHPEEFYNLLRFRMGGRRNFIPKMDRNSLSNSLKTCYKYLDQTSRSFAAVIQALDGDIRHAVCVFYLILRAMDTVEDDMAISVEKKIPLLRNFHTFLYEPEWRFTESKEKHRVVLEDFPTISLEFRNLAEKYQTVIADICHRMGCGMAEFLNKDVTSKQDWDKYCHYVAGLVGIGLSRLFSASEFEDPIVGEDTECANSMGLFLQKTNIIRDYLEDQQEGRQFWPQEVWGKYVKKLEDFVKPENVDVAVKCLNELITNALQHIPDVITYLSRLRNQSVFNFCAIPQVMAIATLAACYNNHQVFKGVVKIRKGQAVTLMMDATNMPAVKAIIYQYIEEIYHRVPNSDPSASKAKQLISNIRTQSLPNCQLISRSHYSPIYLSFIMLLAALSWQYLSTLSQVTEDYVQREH
pIC50: −log10 of the molar value.
Reported Endpoint: pIC50

// worked examples, pIC50 included
Compound	pIC50
C=C(CC[C@]12O[C@H](C(=O)OC)[C@@](O)(C(=O)O)[C@](C(=O)O)(O1)[C@H](OC(=O)/C=C/[C@@H](C)C[C@@H](C)CC)[C@H]2O)[C@@H](C(C)=O)[C@H](C)Cc1ccccc1	8.15
C=C(CC[C@]12O[C@H](C(=O)O)[C@@](O)(C(=O)O)[C@](C(=O)O)(O1)C(O)OC2O)[C@@H](OC(C)=O)[C@H](C)Cc1ccccc1 (stereo partly specified)	7.41
C=C(CC[C@]12O[C@H](C(C)=O)[C@@](O)(C(=O)O)[C@](C(=O)O)(O1)[C@H](OC(=O)/C=C/[C@@H](C)C[C@@H](C)CC)[C@H]2O)[C@@H](OC(C)=O)[C@H](C)Cc1ccccc1	7.96

A. C=C(CC[C@]12O[C@H](c3nnn[nH]3)[C@@](O)(C(=O)O)[C@](C(=O)O)(O1)[C@H](OC(=O)/C=C/[C@@H](C)C[C@@H](C)CC)[C@H]2O)[C@@H](C(C)=O)[C@H](C)Cc1ccccc1
B. CCCCOc1ccc(OCCCNC(C)C)cc1
Consider A and B . Which of these has its pIC50 at a higher number? Respond with the label that goes with your answer.
A

---

Literature survey of pIC50 (system: Squalene synthase (Rattus norvegicus)).
# Test Target: Squalene synthase (Rattus norvegicus)
# Sequence (Q02769 whole entry): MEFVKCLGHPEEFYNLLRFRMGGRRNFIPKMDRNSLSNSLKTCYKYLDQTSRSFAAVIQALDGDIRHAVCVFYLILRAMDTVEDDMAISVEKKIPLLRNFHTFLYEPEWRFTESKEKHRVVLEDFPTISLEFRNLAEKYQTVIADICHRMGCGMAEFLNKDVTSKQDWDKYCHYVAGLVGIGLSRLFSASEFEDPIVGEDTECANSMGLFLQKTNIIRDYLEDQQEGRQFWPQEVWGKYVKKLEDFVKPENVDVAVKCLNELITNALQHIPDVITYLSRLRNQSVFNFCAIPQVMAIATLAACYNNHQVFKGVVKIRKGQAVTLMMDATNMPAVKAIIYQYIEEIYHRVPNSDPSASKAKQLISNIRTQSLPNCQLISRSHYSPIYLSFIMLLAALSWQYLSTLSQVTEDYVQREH
pIC50: −log10 of the molar value.
Reported Endpoint: pIC50

Compound	Test Target	Reported Endpoint	Number
C=C(CC[C@]12O[C@H](c3csc(NC)n3)[C@@](O)(C(=O)O)[C@](C(=O)O)(O1)[C@H](OC(=O)/C=C/[C@@H](C)C[C@@H](C)CC)[C@H]2O)[C@@H](C(C)=O)[C@H](C)Cc1ccccc1	Squalene synthase (Rattus norvegicus)	pIC50	6.84

A. COc1ccccc1[C@@H](O)c1cc(Cl)cc(OCCCO)c1N(CC(C)(C)C)C(=O)CCC(=O)N1CCC[C@H](C(=O)O)C1
B. CC(C)=CCC/C(C)=C/CC/C(C)=C/CC(CCP(=O)(O)O)C(=O)N[C@@H](Cc1ccccc1)C(=O)O (stereo partly drawn)
Which has the smaller recorded pIC50, A or B ? Which one? Tell me its label.
B
